Molecular target: Calcium and integrin-binding protein 1 (Homo sapiens) (UniProt Q99828)
Sequence (Q99828 whole entry, looked up): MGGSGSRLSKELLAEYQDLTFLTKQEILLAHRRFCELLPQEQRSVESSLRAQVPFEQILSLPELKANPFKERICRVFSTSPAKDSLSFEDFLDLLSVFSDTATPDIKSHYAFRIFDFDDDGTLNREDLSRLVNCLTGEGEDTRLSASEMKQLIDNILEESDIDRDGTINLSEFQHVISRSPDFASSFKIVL
Assay: Primary qHTS for Identification of Calcium Integrin Binding Protein 1 (CIB1) Competitor (AID 1508620);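 also: GST tagged CIB1 binding a fluorescein labelled alphaIIb integrin peptide tracer; top concentration of the series differs between compounds; % is scaled to controls: 0 for no effect and ±100 for the full control effect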
Details: CIB1-GST / FITC-alphaIIb peptide fluorescence polarization; series mostly up to 57.7 µM
Excerpt: Assay Provider: Ulhas P. Naik, PhD Sidney Kimmel Medical College Thomas Jefferson University, Philadelphia, PA Primary function of platelets is to maintain hemostasis. At the site of vascular injury, platelets adhere to adhesive proteins such as collagen and von Willebrand factor. […] PROTOCOL TABLES SEQUENCE No. (1, 2, 3, etc.); […] […] 7; ViewLux Fluorescent Polization Read: excitation = 480(20) / emission = 540(25) S and P; FITC Dichroic mirror.
Inconclusive results are not listed. Activity calls are given as the source filed them. Calls follow the shape of the dose curve; as a rule, active = well fitted inhibition curve with a large enough effect; inconclusive = small, poorly fitted or top-dose-only effect; inactive = flat fitted curve, though single readings scatter.
readout-name: activity change, negative = inhibition

CC1OC(OC2C(OC(=O)[C@]34CCC(C)(C)C[C@H]3C3=CCC5[C@@]6(C)CC[C@H](OC7OC(C(=O)O)C(O)C(O)C7O)C(C)(C)C6CC[C@@]5(C)[C@]3(C)CC4O)OC(CO)C2O)C(O)C(O)C1OC1OCC(O)C(O)C1O (stereo partly drawn) | inactive
Cc1cc(-n2c(=O)[nH]c(=O)n(C)c2=O)ccc1Oc1ccc(SC(F)(F)F)cc1 | inactive
COc1cc([C@H]2OC[C@](O)(Cc3ccc(O[C@@H]4O[C@H](CO)[C@@H](O)[C@H](O)[C@H]4O)c(OC)c3)[C@@H]2CO)ccc1O | inactive

###

System: SKOV3
Test: Primary qHTS to identify gynecologic anti-cancer compounds using libraries of approved drugs and bioactive compounds (AID 1345084); also: % is scaled to controls: 0 for no effect and ±100 for the full control effect; nearly all actives have a fitted effect of over 55% in size
Conditions: Gynecologic cancer cell panel viability, ATPlite luminescence, 48 h; series mostly up to 57.5 µM
Records with an inconclusive call do not appear. Activity calls are given as the source filed them. Calls follow the shape of the dose curve; as a rule, active = well fitted cell-killing curve with a large enough effect; inconclusive = small, poorly fitted or top-dose-only effect, or effect the other way; inactive = flat fitted curve, though single readings scatter.
readout-name: activity change, negative = cytotoxicity

CC1OC(O[C@H]2CC[C@@]3(C)C(CC[C@]4(C)C3CC=C3C5CC(C)(C)CC[C@]5(C(=O)OC5OC(CO)C(OC6OCC(OC7OCC(O)C(O)C7O)C(O)C6O)C(O)C5O)CC[C@]34C)C2(C)C)C(O)C(O)C1OC1OC(CO)C(O)C(OC2OC(CO)C(O)C(O)C2O)C1O (stereo partly drawn) | 3.95% [at 6.55 µM] (inactive)
C=C(CCO[C@@H]1O[C@H](CO)[C@@H](O)[C@H](O)[C@H]1O)C(=O)O | inactive
C=C1C(O)CC2C(C(=O)O)=COC(O[C@@H]3O[C@H](COC(=O)c4ccc(O)cc4)[C@@H](O)[C@H](O)[C@H]3O)C12 (stereo partly drawn) | inactive

###

System: HACAT
Assay: qHTS assay to identify novel small-molecules to repurpose for Merkel cell carcinoma treatment (AID 1296009); also: nearly all actives have a fitted effect of over 60% in size
Conditions: MCC and control cell lines, CellTiter-Glo viability, 72 h; at 44.8 µM (top of the series) unless noted
Results filed as inconclusive are left out. Active and inactive are the calls of the source. Calls follow the shape of the dose curve; as a rule, active = well fitted inhibition curve with a large enough effect; inconclusive = small, poorly fitted or top-dose-only effect; inactive = flat fitted curve, though single readings scatter.
readout-name: outcome

CN(C)c1ccc(C2O[C@@H](c3ccccc3)C[C@H](c3ccccc3)O2)cc1 (some centres undefined) | inactive
CC(=C\C(C)O)/C=C(\C)C(=O)CC1CC(CC(N)=O)CC(=O)O1 (centres undefined) | inactive
O=c1[nH]ccc2nc(-c3ccc(CN4CCC(c5nc(-c6ccccn6)n[nH]5)CC4)cc3)c(-c3ccccc3)cc12 | inactive

###

System: Tov-21-G
Assay: Primary qHTS to identify gynecologic anti-cancer compounds using libraries of approved drugs and bioactive compounds (AID 1345084); also: % is scaled to controls: 0 for no effect and ±100 for the full control effect; nearly all actives have a fitted effect of over 55% in size
Details: Gynecologic cancer cell panel viability, ATPlite luminescence, 48 h; series mostly up to 57.5 µM
Inconclusive results are not listed. The source made the active and inactive calls. Calls follow the shape of the dose curve; as a rule, active = well fitted cell-killing curve with a large enough effect; inconclusive = small, poorly fitted or top-dose-only effect, or effect the other way; inactive = flat fitted curve, though single readings scatter. *1 amine or outer side, *2 acyl side, *3 side chain or, on linkers, in order; H or OH if unused. Where a SMILES comes first, the peptide text is derived from it. [ ]: non-standard residue; d: D form. The star is where a group is joined. ξ: configuration not given here. X9 = CCC(C)(N*)C(=O)C1CC[C@@H](C(=O)N[C@@H](Cc2ccccc2)C(=O)NCC(=O)O)N1; X8 = O=C([C@@H]1CC(O)CN1[*:1])[*:2]; aIle = CC[C@@H](C)[C@H](N)C(=O)O; Thr(3ξ) = CC(O)[C@H](N)C(=O)O; ξIva = CCC(C)(N)C(=O)O; Aib = CC(C)(N)C(=O)O
readout-name: activity change, negative = cytotoxicity

O=C(O)c1ccnc(-c2cc(C(=O)NCCc3ccccc3)ccn2)c1 | inactive
CCCCOc1nc(N)c2c(n1)N(Cc1cccc(CN3CCCC3)c1)CC(=O)N2 | inactive
CC[C@@H](C)[C@H](NC(=O)C(C)(C)NC(=O)[C@H](CCC(N)=O)NC(=O)C(C)(CC)NC(=O)[C@H](Cc1c[nH]c2ccccc12)NC(C)=O)C(=O)N[C@H](C(=O)NC(C)(C)C(=O)N[C@@H](CC(C)C)C(=O)NC(C)(C)C(=O)N1CCC[C@H]1C(=O)N[C@@H](CCC(N)=O)C(=O)NC(C)(C)C(=O)N1CC(O)C[C@H]1C(=O)NC(C)(CC)C(=O)C1CC[C@@H](C(=O)N[C@@H](Cc2ccccc2)C(=O)NCC(=O)O)N1)C(C)O (some centres undefined) (Ac-W[ξIva]Q[Aib][aIle][Thr(3ξ)][Aib]L[Aib]PQ[Aib][X8]-X9) | -16.8% [at 6.55 µM] (inactive)
NC[C@@H]1O[C@@H](O[C@@H]2[C@@H](O[C@@H]3O[C@H](CO)[C@@H](O)[C@H]3O)[C@H](O)[C@@H](N)C[C@H]2N)[C@@H](N)[C@H](O)[C@H]1O | -2.07% [at 11.6 µM] (inactive)
C=C1CC[C@@]2(OC1)O[C@H]1CC3C4CC=C5C[C@@H](O[C@@H]6O[C@@H](C)[C@H](O)[C@@H](O)[C@H]6O)C[C@@H](O[C@@H]6O[C@H](C)[C@H](O)[C@H](O)[C@H]6O[C@@H]6O[C@@H](C)[C@H](O)[C@@H](O)[C@H]6O)[C@]5(C)C4CC[C@]3(C)[C@H]1[C@@H]2C (some centres undefined) | -15.7% [at 11.6 µM] (inactive)

Now, please, on to the next compound.
Task item: What does the data say about its activity change, negative = cytotoxicity? Entry: CC(C)=CCC[C@@](C)(O)[C@H]1CC[C@]2(C)[C@@H]1[C@H](O)CC1[C@@]3(C)CC[C@H](O[C@@H]4O[C@H](CO)[C@@H](O)[C@H](O)[C@H]4O[C@@H]4O[C@H](CO)[C@@H](O)[C@H](O)[C@H]4O)C(C)(C)[C@@H]3CC[C@]12C (some centres undefined)
Reply: inactive

###

Test: Primary fluorescence-based thiol-reactive (MSTI) qHTS assay for identification of artifact compounds. (AID 1845221);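 also: thiol-reactive compounds lower the probe fluorescence signal; nearly all actives have a fitted effect of over 65% in size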
Settings: MSTI thiol-reactivity probe, 1 h; series mostly up to 53.8 µM
Results filed as inconclusive are left out. Active and inactive are the calls of the source. Calls follow the shape of the dose curve; as a rule, active = well fitted inhibition curve with a large enough effect; inconclusive = small, poorly fitted or top-dose-only effect; inactive = no such curve, though single readings can be large or run the other way. Where a SMILES comes first, the peptide text is derived from it.
readout-name: activity change, negative = thiol reactive

Examples with their reported activity change, negative = thiol reactive follow.
CSCC[C@H](NC(=O)[C@H](CO)NC(=O)[C@H](CCC(=O)O)NC(C)=O)C(=O)N[C@H](C=O)CC(=O)O (Ac-ESMD-aldehyde) | 10.4% [at 11.5 µM] (inactive)
CC1OC(OC2C(OC3C(O[C@H]4CC[C@@]5(C)C(CC[C@]6(C)C5CC=C5C7CC(C)(C)CC(O)[C@]7(C)CC[C@]56C)C4(C)C)OC(C(=O)O)C(O)C3O)OCC(O)C2O)C(O)C(O)C1O (stereo partly specified) | 167% [at 11.5 µM] (inactive)
C=C1CC[C@@]2(OC1)O[C@H]1CC3[C@@H]4CC=C5C[C@H](O[C@H]6OC[C@@H](O)C(O)[C@@H]6O[C@@H]6O[C@@H](C)[C@H](O)[C@@H](O[C@@H]7O[C@H](CO)[C@@H](O)[C@H](O)[C@H]7O)[C@H]6O)C[C@@H](O)[C@]5(C)C4CC[C@]3(C)[C@H]1[C@@H]2C (stereo partly specified) | 124% [at 11.5 µM] (inactive)
C/C=C/C=C/[C@@H]1O[C@](O)([C@H](CC)C(=O)NC/C=C/C=C(\C)[C@@H](OC)[C@@H](C)[C@@H]2O[C@H](/C=C/C=C/C=C(\C)C(=O)c3c(O)ccn(C)c3=O)[C@H](O)[C@@H]2O)[C@H](O)[C@H](O)C1(C)C | 94.3% [at 11.5 µM] (inactive)
CC1(C)CC[C@]2(C(=O)O[C@@H]3O[C@H](CO)[C@@H](O)[C@H](O)[C@H]3O)CC[C@]3(C)C(=CCC4[C@@]5(C)C[C@H](O)[C@H](O[C@@H]6OC[C@@H](O)[C@H](O)[C@H]6O)[C@@](C)(CO)C5CC[C@]43C)C2C1 (stereo partly specified) | 298% [at 11.5 µM] (inactive)
C[C@@H]1O[C@@H](O[C@H]2[C@H](OC(=O)[C@]34CCC(C)(C)C[C@H]3C3=CCC5[C@@]6(C)CC[C@H](O[C@@H]7O[C@H](CO[C@@H]8OC[C@H](O)[C@H](O)[C@H]8O)[C@@H](O)[C@H](O)[C@H]7O)C(C)(C)C6CC[C@@]5(C)[C@]3(C)C[C@H]4O)OC[C@@H](O)[C@@H]2O)[C@H](O)[C@H](O[C@@H]2OC[C@](O)(CO)[C@H]2O)[C@H]1O[C@@H]1OC[C@H](O)[C@H](O[C@@H]2OC[C@@H](O)[C@H](O)[C@H]2O)[C@H]1O (stereo partly specified) | 415% [at 11.5 µM] (inactive)
C=C1CC[C@]2(C(=O)O[C@@H]3O[C@H](CO)[C@@H](O)[C@H](O)[C@H]3O)CC[C@]3(C)C(=CCC4[C@@]5(C)C[C@H](O)[C@@H](O[C@@H]6O[C@H](C(=O)O)[C@@H](O)[C@H](O)[C@H]6O)[C@](C)(C=O)C5CC[C@]43C)C2C1 (stereo partly specified) | 113% [at 11.5 µM] (inactive)
COc1cc(C)c(C(=O)NC2C(C)OC(OC3CCC(C)C4C3C=C(C)C3/C(C)=C\CC/C(C)=C/C5(C)C=C(C(=O)O)C(C)CC56OC(=O)/C(=C(\O)C34C)C6=O)C(O)C2(C)O)c(O)c1 (stereo unspecified) | 188% [at 11.5 µM] (inactive)

Task item: Can you look up the measured activity change, negative = thiol reactive of CC1(C)CC[C@]2(C(=O)O[C@@H]3O[C@H](CO[C@@H]4O[C@H](CO)[C@@H](O)[C@H](O)[C@H]4O)[C@@H](O)[C@H](O[C@@H]4O[C@H](CO)[C@@H](O)[C@H](O)[C@H]4O)[C@H]3O)[C@H](O)C[C@]3(C)C(=CCC4[C@@]5(C)CC[C@H](O[C@@H]6OC[C@@H](O)[C@H](O)[C@H]6O)[C@@](C)(C(=O)O)C5CC[C@]43C)[C@@H]2C1 (stereo partly specified) for me?
Reply: 59.1% [at 11.5 µM] (inactive)

Task item: Record request: activity change, negative = thiol reactive value, item CC1(C)CC[C@]2(C(=O)O[C@@H]3O[C@H](CO)[C@@H](O)[C@H](O)[C@H]3O)CC[C@]3(C)C(=CCC4[C@@]5(C)C[C@H](O)[C@H](O[C@@H]6O[C@H](C(=O)O)[C@@H](O)[C@H](O)[C@H]6O)[C@@](C)(CO)C5CC[C@]43C)C2C1 (stereo partly specified)
Reply: 8.46% [at 11.5 µM] (inactive)
